System: Gambusia affinis
Experiment: Toxicity against Gambusia affinis
Details: in vivo
Please note: LC50 exactly at 5 ppm is Not satisfied. Only values below 5 ppm get Satisfied.

Query: Given CC(C)CCCC(C)CCCC(C)CCCC(C)CCCC(C)CCCC(C)CCc1cc(O)ccc1O (configuration not stated) , is recorded LC50 strictly lower than 5 ppm?
Result: Not satisfied

Query: Given CC(C)CCCC(C)CCc1cc(O)ccc1O (configuration not stated) , is recorded LC50 strictly lower than 5 ppm?
Result: Satisfied

Query: Given CC(C)=CCC/C(C)=C/Cc1cc(O)ccc1O , is recorded LC50 strictly lower than 5 ppm?
Result: Satisfied

Query: Given Cc1cc(O)ccc1O [METHYLHYDROQUINONE] , is recorded LC50 strictly lower than 5 ppm?
Result: Not satisfied

Query: Given CC(C)=CCC/C(C)=C/CC/C(C)=C/Cc1cc(O)ccc1O , is recorded LC50 strictly lower than 5 ppm?
Result: Satisfied

Query: Given CC(C)=CCC/C(C)=C/CC/C(C)=C/CC/C(C)=C/CC/C(C)=C/CC/C(C)=C/CC/C(C)=C/Cc1cc(O)ccc1O , is recorded LC50 strictly lower than 5 ppm?
Result: Not satisfied

Query: Given CC(C)CCCC(C)CCCC(C)CCCC(C)CCc1cc(O)ccc1O (configuration not stated) , is recorded LC50 strictly lower than 5 ppm?
Result: Not satisfied

Query: Given CC(C)=CCC/C(C)=C/CC/C(C)=C/CC/C(C)=C/CC/C(C)=C/CC/C(C)=C/CC/C(C)=C/CC1=CC(=O)C=CC1=O , is recorded LC50 strictly lower than 5 ppm?
Result: Not satisfied

Query: Given CC(C)CCCC(C)CCCC(C)CCCC(C)CCCC(C)CCCC(C)CCCC(C)CCCC(C)CCc1cc(O)ccc1O (configuration not stated) , is recorded LC50 strictly lower than 5 ppm?
Result: Not satisfied

Query: Given CC(C)=CCC/C(C)=C/CC/C(C)=C/CC/C(C)=C/CC/C(C)=C/CC/C(C)=C/CC/C(C)=C/CC/C(C)=C/Cc1cc(O)ccc1O , is recorded LC50 strictly lower than 5 ppm?
Result: Not satisfied

Query: Given CC(C)=CCc1cc(O)ccc1O [PRENYLHYDROQUINONE] , is recorded LC50 strictly lower than 5 ppm?
Result: Not satisfied

Query: Given CC1=CCC[C@H]2[C@](C)(Cc3cc(O)ccc3O)[C@@H](C)CC[C@]12C , is recorded LC50 strictly lower than 5 ppm?
Result: Satisfied

Query: Given CC(C)=CCC/C(C)=C/CC/C(C)=C/CC/C(C)=C/CC/C(C)=C/CC/C(C)=C/CC/C(C)=C/CC/C(C)=C/CC1=CC(=O)C=CC1=O , is recorded LC50 strictly lower than 5 ppm?
Result: Not satisfied

Query: Given CC(C)CCCC(C)CCCC(C)CCc1cc(O)ccc1O (configuration not stated) , is recorded LC50 strictly lower than 5 ppm?
Result: Not satisfied

Query: Given CC(C)CCCC(C)CCCC(C)CCCC(C)CCCC(C)CCCC(C)CCCC(C)CCc1cc(O)ccc1O (configuration not stated) , is recorded LC50 strictly lower than 5 ppm?
Result: Not satisfied

Query: Given Oc1ccc(O)cc1 [HYDROQUINONE] , is recorded LC50 strictly lower than 5 ppm?
Result: Not satisfied

Query: Given CC1=CC(=O)C=CC1=O , is recorded LC50 strictly lower than 5 ppm?
Result: Not satisfied

Query: Given C=C(C)[C@H]1Cc2c(ccc3c2O[C@@H]2COc4cc(OC)c(OC)cc4[C@@H]2C3=O)O1 , is recorded LC50 strictly lower than 5 ppm?
Result: Satisfied

Query: Given CC(C)=CCC1=CC(=O)C=CC1=O , is recorded LC50 strictly lower than 5 ppm?
Result: Satisfied

Query: Given CC(C)=CCC/C(C)=C/CC/C(C)=C/CC/C(C)=C/CC/C(C)=C/CC/C(C)=C/Cc1cc(O)ccc1O , is recorded LC50 strictly lower than 5 ppm?
Result: Not satisfied

Query: Given CC(C)CCc1cc(O)ccc1O , is recorded LC50 strictly lower than 5 ppm?
Result: Satisfied

Query: Given CC(C)=CCC/C(C)=C/CC1=CC(=O)C=CC1=O , is recorded LC50 strictly lower than 5 ppm?
Result: Satisfied

* * *

Tested on: Artemia salina
Assay: Toxicity against Artemia salina after 24 hrs
Conditions: in vivo
experimentalReadout: LC50 (ppm)
Unit ppm implied. Number only.

Query: Any idea what LC50 came out for CC(C)=CCC/C(C)=C/CC/C(C)=C/CC/C(C)=C/CC/C(C)=C/CC/C(C)=C/Cc1cc(O)ccc1O on Artemia salina?
Result: 0.63

Query: Any idea what LC50 came out for CC(C)CCCC(C)CCCC(C)CCc1cc(O)ccc1O (stereo unspecified) on Artemia salina?
Result: 0.02

Query: Any idea what LC50 came out for CC(C)=CCC/C(C)=C/CC/C(C)=C/CC/C(C)=C/CC/C(C)=C/CC/C(C)=C/CC/C(C)=C/CC1=CC(=O)C=CC1=O on Artemia salina?
Result: 1.26

Query: Any idea what LC50 came out for CC(C)CCCC(C)CCc1cc(O)ccc1O (stereo unspecified) on Artemia salina?
Result: 0.001

Query: Any idea what LC50 came out for CC(C)=CCC/C(C)=C/CC/C(C)=C/CC/C(C)=C/CC/C(C)=C/CC/C(C)=C/CC/C(C)=C/Cc1cc(O)ccc1O on Artemia salina?
Result: 0.91

Query: Any idea what LC50 came out for CC(C)=CCC/C(C)=C/Cc1cc(O)ccc1O on Artemia salina?
Result: 0.01

Query: Any idea what LC50 came out for CC(C)CCc1cc(O)ccc1O on Artemia salina?
Result: 0.29

Query: Any idea what LC50 came out for CC(C)=CCC/C(C)=C/CC/C(C)=C/CC/C(C)=C/CC/C(C)=C/CC/C(C)=C/CC/C(C)=C/CC/C(C)=C/CC1=CC(=O)C=CC1=O on Artemia salina?
Result: 1.45

Query: Any idea what LC50 came out for CC(C)=CCc1cc(O)ccc1O [PRENYLHYDROQUINONE] on Artemia salina?
Result: 0.54

Query: Any idea what LC50 came out for CC1=CC(=O)C=CC1=O on Artemia salina?
Result: 1.06

Query: Any idea what LC50 came out for CC(C)=CCC1=CC(=O)C=CC1=O on Artemia salina?
Result: 0.19

Query: Any idea what LC50 came out for CC1=CCC[C@H]2[C@](C)(Cc3cc(O)ccc3O)[C@@H](C)CC[C@]12C on Artemia salina?
Result: 0.18

Query: Any idea what LC50 came out for CC(C)CCCC(C)CCCC(C)CCCC(C)CCc1cc(O)ccc1O (stereo unspecified) on Artemia salina?
Result: 0.02

Query: Any idea what LC50 came out for CC(C)=CCC/C(C)=C/CC/C(C)=C/Cc1cc(O)ccc1O on Artemia salina?
Result: 0.05

Query: Any idea what LC50 came out for CC(C)=CCC/C(C)=C/CC1=CC(=O)C=CC1=O on Artemia salina?
Result: 0.05

Query: Any idea what LC50 came out for CC(C)=CCC/C(C)=C/CC/C(C)=C/CC/C(C)=C/CC/C(C)=C/CC/C(C)=C/CC/C(C)=C/CC/C(C)=C/Cc1cc(O)ccc1O on Artemia salina?
Result: 0.98

Query: Any idea what LC50 came out for Oc1ccc(O)cc1 [HYDROQUINONE] on Artemia salina?
Result: 0.35
